The measured values listed here are drawn from ChEMBL document CHEMBL1126805.

Test system: M14
protocol-text: Tested for cytotoxicity against M14 melanoma
Type: functional, Homo sapiens
recorded-conditions: Homo sapiens, M14
Measured GI50 accompanies every entry in the list below.

Consider the reported GI50 for these compounds:
INSERT INTO results (record_smiles, measured_result) VALUES
  ('CCCc1ccc(/N=C/c2cc(OC)c(OC)c(OC)c2)cc1', '> 100 µM'),
  ('CCc1ccc(/N=C/c2cc(OC)c(OC)c(OC)c2)cc1', '> 100 µM'),
  ('COc1cc(/C=N/c2ccc(C(C)C)cc2)cc(OC)c1OC', '> 100 µM');

Note: attention shifts to another entry.
Prompt line: Consider the compound shown here: `CCOc1ccc(/N=C/c2cc(OC)c(OC)c(OC)c2)cc1` What is its recorded GI50?
Response line: > 100 µM

----------
system-tested: Tubulin (Bos taurus, UniProt Q6B856+Q862F3)
Sequence (Q6B856 whole entry): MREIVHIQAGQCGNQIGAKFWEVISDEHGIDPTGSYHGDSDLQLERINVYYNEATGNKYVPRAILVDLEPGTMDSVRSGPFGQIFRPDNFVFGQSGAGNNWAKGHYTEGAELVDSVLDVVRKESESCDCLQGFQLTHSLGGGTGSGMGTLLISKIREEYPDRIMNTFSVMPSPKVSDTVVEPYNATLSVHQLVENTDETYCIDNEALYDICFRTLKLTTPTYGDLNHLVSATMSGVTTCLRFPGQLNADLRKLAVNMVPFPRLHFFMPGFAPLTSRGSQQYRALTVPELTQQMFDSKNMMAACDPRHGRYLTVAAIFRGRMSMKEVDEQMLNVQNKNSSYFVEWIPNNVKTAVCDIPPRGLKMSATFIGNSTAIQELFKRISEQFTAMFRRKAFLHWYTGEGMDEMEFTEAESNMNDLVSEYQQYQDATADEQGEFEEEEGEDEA
Sequence (Q862F3 whole entry): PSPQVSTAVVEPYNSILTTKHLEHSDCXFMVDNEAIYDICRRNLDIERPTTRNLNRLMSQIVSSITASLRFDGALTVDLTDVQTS
protocol-text: In vitro inhibition of bovine electrophoretically homogeneous tubulin polymerization.
IC50 reference

INSERT INTO results (record_smiles, measured_result) VALUES
  ('COc1cc(/C=N/c2ccc(C(C)C)cc2)cc(OC)c1OC', '> 40 µM'),
  ('CCCc1ccc(NCc2cc(OC)c(OC)c(OC)c2)cc1', '> 40 µM'),
  ('CCOc1ccc(/N=C/c2cc(OC)c(OC)c(OC)c2)cc1', '> 40 µM');

Prompt line: # query: IC50 of entry `CCCc1ccc(/N=C/c2cc(OC)c(OC)c(OC)c2)cc1`
Response line: > 40 µM
